This collection of values is drawn from ChEMBL document CHEMBL4364350.

- RUN_DESCRIPTION: Binding affinity to 5'-fluorescein-tagged Escherichia coli ribosomal A site wt-bac duplex RNA incubated for 2 mins by fluorescence spectrophotometric analysis
pKd: −log10 of the molar value.
Listed molecules paired with reported pKd

[
  {
    "MOLECULE": "NC[C@@H]1O[C@H](O[C@H]2[C@@H](O)[C@H](O[C@@H]3[C@@H](O)[C@H](N)C[C@H](N)[C@H]3O[C@H]3O[C@H](CN)[C@@H](O)[C@H](O)[C@H]3N)O[C@@H]2CO)[C@H](N)[C@@H](O)[C@@H]1O [FRAMYCETIN]",
    "pKd": 9.00
  },
  {
    "MOLECULE": "CCO[C@H]1[C@H](O)[C@@H](N)[C@@H](O[C@H]2[C@H](O[C@@H]3O[C@H](CO)[C@@H](O[C@H]4O[C@@H](CN)[C@@H](O)[C@H](O)[C@H]4N)[C@H]3O)[C@@H](O)[C@H](N)C[C@@H]2N)O[C@@H]1CO",
    "pKd": 7.52
  },
  {
    "MOLECULE": "NC[C@@H]1O[C@H](O[C@H]2[C@@H](O)[C@H](O[C@@H]3[C@@H](O)[C@H](N)C[C@H](N)[C@H]3O[C@H]3O[C@H](CO)[C@@H](O)[C@H](O)[C@H]3N)O[C@@H]2CO)[C@H](N)[C@@H](O)[C@@H]1O [PAROMOMYCIN]",
    "pKd": 8.30
  },
  {
    "MOLECULE": "CCC[C@H]1[C@H](O)[C@@H](N)[C@@H](O[C@H]2[C@H](O[C@@H]3O[C@H](CO)[C@@H](O[C@H]4O[C@@H](CN)[C@@H](O)[C@H](O)[C@H]4N)[C@H]3O)[C@@H](O)[C@H](N)C[C@@H]2N)O[C@@H]1CO",
    "pKd": 8.70
  }
]
